experimental-system: GSK3b (GST-full length GSK3b) (Homo sapiens (Human))
Sequence (P49841 whole entry): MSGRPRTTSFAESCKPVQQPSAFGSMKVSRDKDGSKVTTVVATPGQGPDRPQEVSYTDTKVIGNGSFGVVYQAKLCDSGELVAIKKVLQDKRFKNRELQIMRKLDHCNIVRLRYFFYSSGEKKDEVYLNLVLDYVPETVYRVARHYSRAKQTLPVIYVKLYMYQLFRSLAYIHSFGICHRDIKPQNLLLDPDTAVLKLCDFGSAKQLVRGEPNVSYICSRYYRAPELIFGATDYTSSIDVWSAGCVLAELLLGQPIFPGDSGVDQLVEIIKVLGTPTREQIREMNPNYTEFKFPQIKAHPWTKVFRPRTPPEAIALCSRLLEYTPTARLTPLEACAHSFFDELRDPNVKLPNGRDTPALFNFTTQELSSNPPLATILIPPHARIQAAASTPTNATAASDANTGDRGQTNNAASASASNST
experiment-description: GSK3b TR-FRET kinase assay
Type: biochemical
applied-conditions: 1 nM GSK3b, 2 μM ATP, 30 minute preincubation; geometric mean; read-out: GSK3-B TR-FRET BIOCHEMICAL (TR-FRET); GMean; IC50
Experimental: TR-FRET Assay: The assay was performed in a white, 384 well, low volume, flat bottom plate (Grenier). After a 30 minute preincubation in assay buffer with the indicated concentration of compound, the kinase activity was initiated by the addition of the substrates. […] After 60 min at room temperature the plate was read on Envision plate reader using Ex: 340 nm, Em: 615 nm and […]. The normalized 665/615 Signal ratio versus log compound concentration was analyzed by XLFIT to yield IC50 values.
recorded-endpoint: IC50

Here are 3 compounds together with their reported answers.
compound	data-value
CCC1(c2cccc(S(=O)(=O)C3CC3)c2)C2=C(CC(C)(C)N(C)C2=O)Nc2n[nH]cc21 (centres unmarked)	≤ 100 nM
CCC1(c2cccc(-c3ccnc4c3CCC4)c2)C2=C(CC(C)(C)NC2=O)Nc2n[nH]cc21 (centres unmarked) [Compound 948308]	> 5000 nM
CC[C@@]1(c2cccc(-c3cnn(C(F)F)c3)c2)C2=C(CC(C)(C)NC2=O)Nc2n[nH]cc21	> 5000 nM

What IC50 appears in the records for this compound with GSK3b (GST-full length GSK3b) (Homo sapiens (Human))? CCC1(c2ccccc2)C2=C(CC(C)(C)CC2=O)Nc2n[nH]c(C(F)F)c21 (centres unmarked)
≤ 100 nM

And then CCn1ccc(S(=O)(=O)N2CCC3(CC2)C2=C(CC(C)(C)NC2=O)Nc2n[nH]cc23)n1 , what is it?
100 to 1000 nM

----------
Listing: IC50 of selected compounds
experimental-system: GSK3b (GST-full length GSK3b) (Homo sapiens (Human))
experiment-description: GSK3b TR-FRET kinase assay
Format: biochemical
applied-conditions: 1 nM GSK3b, 2 μM ATP, 30 minute preincubation, Table 16; read-out: GSK3-B TR-FRET BIOCHEMICAL (TR-FRET); IC50

Here are 6 compounds together with their reported answers.
compound	recorded-endpoint	data-value
CCC1(c2cccc(C(F)(F)F)c2)C2=C(CCN(c3ccn(C)n3)C2=O)Nc2n[nH]cc21 (stereo not shown)	IC50	100 to 1000 nM
CC[C@]1(c2cccc(-c3ccncc3C(F)(F)F)c2)C2=C(CC(C)(C)NC2=O)Nc2n[nH]cc21	IC50	≤ 100 nM
CCC1(c2cccc(N(C)c3ccc(F)nc3)c2)C2=C(CC(C)(C)CC2=O)Nc2n[nH]cc21 (stereo not shown)	IC50	100 to 1000 nM
CCC1(c2cccc(-c3ccnc(C(F)(F)F)c3)c2)C2=C(CC(C)(C)CC2=O)Nc2n[nH]c(C)c21 (stereo not shown) [Compound 913020]	IC50	≤ 100 nM
CCC1(c2cccc(Oc3ncccn3)c2)C2=C(CC(C)(C)NC2=O)Nc2n[nH]c(Cl)c21 (stereo not shown)	IC50	≤ 100 nM
CCC1(c2cccc(Oc3cncnc3)c2)C2=C(CC(C)(C)CC2=O)Nc2n[nH]cc21 (stereo not shown)	IC50	100 to 1000 nM

Field: next compound
State the recorded IC50 for this entry: CC1(C)CC(=O)C2=C(C1)Nc1n[nH]cc1[C@]21CCO[C@@H](C(C)(C)C)C1
1000 to 5000 nM
